Biological target: Polyunsaturated fatty acid 5-lipoxygenase (Homo sapiens)
Sequence (whole entry): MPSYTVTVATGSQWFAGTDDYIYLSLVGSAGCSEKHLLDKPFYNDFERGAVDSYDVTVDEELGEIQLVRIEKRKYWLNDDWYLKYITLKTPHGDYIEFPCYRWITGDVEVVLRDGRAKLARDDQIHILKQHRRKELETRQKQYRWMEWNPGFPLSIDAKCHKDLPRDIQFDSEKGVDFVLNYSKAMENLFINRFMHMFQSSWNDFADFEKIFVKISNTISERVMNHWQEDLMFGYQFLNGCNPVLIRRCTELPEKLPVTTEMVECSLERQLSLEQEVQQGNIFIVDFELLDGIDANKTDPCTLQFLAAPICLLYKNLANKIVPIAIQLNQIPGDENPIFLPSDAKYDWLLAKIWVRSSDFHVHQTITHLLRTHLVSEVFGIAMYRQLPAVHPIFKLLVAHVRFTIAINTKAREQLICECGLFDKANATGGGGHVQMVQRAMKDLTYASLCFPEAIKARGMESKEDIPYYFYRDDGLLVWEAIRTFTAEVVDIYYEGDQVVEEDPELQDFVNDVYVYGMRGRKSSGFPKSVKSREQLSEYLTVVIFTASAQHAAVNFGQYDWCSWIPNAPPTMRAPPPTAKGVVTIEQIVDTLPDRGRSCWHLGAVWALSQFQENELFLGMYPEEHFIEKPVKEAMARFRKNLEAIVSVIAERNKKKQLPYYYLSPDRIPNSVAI
Assay: Inhibition of human recombinant 5-lipoxygenase-mediated product formation from arachidonic acid assessed as remaining activity at 10 uM after 5 to 10 mins by HPLC analysis

| compound | test.target | Activity / % |
| --- | --- | --- |
| CCCCC(Cc1cc(OCCc2ccccc2)cc(OCCc2ccccc2)c1)C(=O)O (stereo not drawn) | Polyunsaturated fatty acid 5-lipoxygenase (Homo sapiens) | 80.3 |
| CCCCC(Sc1nc(OCCc2ccc(OC(F)(F)F)cc2)cc(OCCc2ccc(OC(F)(F)F)cc2)n1)C(=O)O (stereo not drawn) | Polyunsaturated fatty acid 5-lipoxygenase (Homo sapiens) | 56.4 |
| CCCC/C(=C\c1cc(OCCc2ccccc2)cc(OCCc2ccccc2)c1)C(=O)O | Polyunsaturated fatty acid 5-lipoxygenase (Homo sapiens) | 62.7 |
| CCCC/C(=C\c1cc(OCCc2ccc(C(F)(F)F)cc2)ccc1OCCc1ccc(C(F)(F)F)cc1)C(=O)O | Polyunsaturated fatty acid 5-lipoxygenase (Homo sapiens) | 55.6 |
| CCCC/C(=C\c1cc(OCCC2CCCCC2)ccc1OCCC1CCCCC1)C(=O)O | Polyunsaturated fatty acid 5-lipoxygenase (Homo sapiens) | 73 |
| CCCCC(Cc1ccc(OCCc2ccccc2)c(OCCc2ccccc2)c1)C(=O)O (stereo not drawn) | Polyunsaturated fatty acid 5-lipoxygenase (Homo sapiens) | 54 |
| CCCCC(Sc1nc(OCCC2CCCCCC2)cc(OCCC2CCCCCC2)n1)C(=O)O (stereo not drawn) | Polyunsaturated fatty acid 5-lipoxygenase (Homo sapiens) | 53.8 |
| CCCC/C(=C\c1cc(OCCc2ccccc2)ccc1OCCc1ccccc1)C(=O)O | Polyunsaturated fatty acid 5-lipoxygenase (Homo sapiens) | 78.2 |
